protocol_text: CHI Log D procedure
Format: physicochemical
protocol_conditions: pH 7.4
endpoint_name: CHI Log D
Form rule: numeric answer, no unit written next to it.

{"compound": "CC[C@@H]1NC(=O)[C@H](CC(=O)O)NC(=O)[C@]2(CC=CCCCC3(CCCC=CCCCCCC[C@@](C)(C(=O)N[C@@H](Cc4ccccc4)C(=O)N[C@@H](Cc4csc5ccccc45)C(=O)N[C@@H](CCC(N)=O)C(N)=O)NC(=O)[C@H](CC(N)=O)NC(=O)[C@H](Cc4ccccc4)NC(=O)[C@H](C)NC(=O)[C@H](C)NC(=O)[C@H](CC(=O)O)NC(=O)[C@H](CC(=O)O)NC3=O)NC1=O)CCCN2C(C)=O (some centres unmarked) [I-573]", "CHI Log D": 2.116}

For the next question, use this compound.
According to the records, this compound CC[C@H](C)[C@@H]1NC(=O)[C@H](CC(=O)O)NC(=O)[C@]2(CC=CCCCC3(CCCC=CCCCCCC[C@@](C)(C(=O)N[C@@H](Cc4ccsc4)C(=O)N[C@@H](Cc4csc5ccccc45)C(N)=O)NC(=O)[C@H](CC(N)=O)NC(=O)[C@H](Cc4ccccc4)NC(=O)[C@H](C)NC(=O)[C@H](C)NC(=O)[C@H](CCC(=O)O)NC(=O)[C@H](CC(=O)O)NC3=O)NC1=O)CCCN2C(C)=O (some centres unmarked) [I-721] displays CHI Log D of 2.722

* * *

tested_on: beta-catenin/TCF4 engagement (Homo sapiens)
Construct: expressed in transfected cells; host or cells: HEK293
Sequence (P35222 whole entry): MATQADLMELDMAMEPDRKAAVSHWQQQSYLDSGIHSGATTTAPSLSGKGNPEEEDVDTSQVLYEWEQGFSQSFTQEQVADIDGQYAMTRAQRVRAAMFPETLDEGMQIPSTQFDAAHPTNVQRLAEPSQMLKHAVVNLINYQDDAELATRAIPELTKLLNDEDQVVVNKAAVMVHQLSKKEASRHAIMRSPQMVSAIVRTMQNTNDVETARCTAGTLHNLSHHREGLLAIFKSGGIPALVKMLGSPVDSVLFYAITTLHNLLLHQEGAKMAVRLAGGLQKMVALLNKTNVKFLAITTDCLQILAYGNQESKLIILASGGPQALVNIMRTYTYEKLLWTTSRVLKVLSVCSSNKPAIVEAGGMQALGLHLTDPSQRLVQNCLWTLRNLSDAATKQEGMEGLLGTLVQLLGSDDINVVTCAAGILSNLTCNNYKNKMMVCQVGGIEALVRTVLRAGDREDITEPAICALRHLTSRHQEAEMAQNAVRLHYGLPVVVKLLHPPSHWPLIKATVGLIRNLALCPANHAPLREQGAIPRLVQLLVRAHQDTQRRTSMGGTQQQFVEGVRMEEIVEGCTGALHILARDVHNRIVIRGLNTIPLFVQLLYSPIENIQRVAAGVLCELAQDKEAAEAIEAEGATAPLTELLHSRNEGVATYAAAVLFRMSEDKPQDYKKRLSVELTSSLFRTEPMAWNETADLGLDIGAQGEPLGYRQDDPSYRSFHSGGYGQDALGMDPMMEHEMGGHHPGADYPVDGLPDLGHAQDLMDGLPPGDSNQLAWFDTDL
protocol_text: Nano-BRET target engagement assay (B-cat-Halo & TCF4-Luc in HEK293 cells)
Assay type: cell-based
protocol_conditions: read-out: NanoBRET Abs IC50
endpoint_name: IC50 (µM)
Number in µM, nothing else.

{"compound": "CC(=O)N1CCC[C@]12CC=CCCCC1(CCCC=CCCCOC(=O)N3CC[C@@](C(=O)N[C@@H](Cc4ccsc4)C(=O)N[C@@H](Cc4csc5ccccc45)C(=O)N[C@@H](C)C(N)=O)(C3)NC(=O)[C@H](CC(C)C)NC(=O)[C@H](Cc3ccccc3)NC(=O)[C@H](C)NC(=O)[C@H](CCC(N)=O)NC(=O)[C@H](Cc3ccc(F)c(C(=O)O)c3)NC(=O)[C@H](CC(=O)O)NC1=O)NC(=O)[C@H](CC(C)(C)C)NC(=O)[C@H](CC(=O)O)NC2=O (stereo partly drawn) [I-2206]", "u": "µM", "result": 7.1}

As a next step, examine the compound that follows.
Lab book: IC50 of CC(=O)N1CCC[C@]12CC=CCCCC1(CCCC=CCCCCOC(=O)N3CC[C@@](C(=O)N[C@@H](Cc4ccsc4)C(=O)N[C@@H](Cc4csc5ccccc45)C(=O)N[C@@H](CCC(N)=O)C(N)=O)(C3)NC(=O)[C@H](CC(N)=O)NC(=O)[C@H](Cc3ccccc3)NC(=O)[C@H](C)NC(=O)[C@H](C)NC(=O)[C@H](CC(=O)O)NC(=O)[C@H](CC(=O)O)NC1=O)NC(=O)[C@H](CC(C)(C)C)NC(=O)[C@H](CC(=O)O)NC2=O (stereo partly drawn) [I-767] noted as 37.2

* * *

tested_on: full-length beta-Catenin (Uniprot ID P35222) (Homo sapiens, UniProt P35222)
Construct: 10 nM full-length beta-Catenin (Uniprot ID P35222)
Sequence (P35222 whole entry): as above
protocol_text: Fluorescence polarization IC50 (beta-catenin / 5FAM-TCF4 10-53 competition)
Format: binding
protocol_conditions: read-out: beta-Catenin FP IC50
endpoint_name: pIC50
By convention, pIC50 is the negative base-10 log of a molar concentration.

Some compounds with known pIC50 results, for comparison:
{"compound": "CC(=O)N1CCC[C@]12CC=CCCCC1(CCCC=CCCCOC(=O)N3CC[C@@](C(=O)N[C@@H](Cc4ccsc4)C(=O)N[C@@H](Cc4csc5ccccc45)C(=O)N[C@@H](CCO)C(N)=O)(C3)NC(=O)[C@H](CC(N)=O)NC(=O)[C@H](Cc3ccccc3)NC(=O)[C@H](C)NC(=O)[C@H](C)NC(=O)[C@H](CN(CC(=O)O)CC(F)(F)F)NC(=O)[C@H](CC(=O)O)NC1=O)NC(=O)[C@H](CC(C)(C)C)NC(=O)[C@H](CC(=O)O)NC2=O (some centres unmarked) [I-950]", "pIC50": 5.79}
{"compound": "CC(=O)N1CCC[C@]12CC=CCCCC1(CCCC=CCCCOC(=O)N3CC[C@@](C(=O)N[C@@H](Cc4cccc5ccccc45)C(=O)N[C@@H](Cc4csc5ccccc45)C(=O)N[C@@H](Cc4c[nH]cn4)C(N)=O)(C3)NC(=O)[C@H](CC(N)=O)NC(=O)[C@H](Cc3ccccc3)NC(=O)[C@H](C)NC(=O)[C@H](C)NC(=O)[C@H](CC(=O)O)NC(=O)[C@H](CC(=O)O)NC1=O)NC(=O)[C@H](CC(C)(C)C)NC(=O)[C@H](CC(=O)O)NC2=O (some centres unmarked) [I-794]", "pIC50": 7.72}
{"compound": "CC(=O)N1CCC[C@]12CC=CCCCC1(CCCC=CCCCOC(=O)N3CC[C@@](C(=O)N[C@@H](Cc4ccsc4)C(=O)N[C@@H](Cc4csc5ccccc45)C(=O)N[C@@H](CO)C(N)=O)(C3)NC(=O)[C@H](CC(C)C)NC(=O)[C@H](Cc3ccccc3)NC(=O)[C@H](C)NC(=O)[C@H](C)NC(=O)[C@H](Cc3cccc(C(=O)O)c3)NC(=O)[C@H](CC(=O)O)NC1=O)NC(=O)[C@H](CC(C)(C)C)NC(=O)[C@H](CC(=O)O)NC2=O (some centres unmarked) [I-986]", "pIC50": 6.87}

The reported value for CC(=O)N1CCC[C@]12CC=CCCCC1(CCCC=CCCCCCC[C@@](C)(C(=O)N[C@@H](Cc3ccccc3Cl)C(=O)N[C@@H](Cc3csc4ccccc34)C(=O)N[C@@H](CCO)C(N)=O)NC(=O)[C@H](CO)NC(=O)[C@H](Cc3ccccc3)NC(=O)[C@H](C)NC(=O)[C@H](C)NC(=O)[C@H](CN(CC(=O)O)CC(F)(F)F)NC(=O)[C@H](CC(=O)O)NC1=O)NC(=O)[C@H](CC(C)(C)C)NC(=O)[C@H](CC(=O)O)NC2=O (single isomer, unassigned) [I-999] in terms of pIC50 is 7.59

Please fill in: pIC50 reported for C#CCOCCC(=O)NCCCC[C@H](NC(=O)[C@H](CCC(N)=O)NC(=O)[C@H](Cc1csc2ccccc12)NC(=O)[C@H](Cc1ccsc1)NC(=O)[C@]12CCN(C1)C(=O)OCCCC=CCCCC1(CCCC=CC[C@]3(CCCN3C(C)=O)C(=O)N[C@@H](CC(=O)O)C(=O)N[C@@H](CC(C)(C)C)C(=O)N1)C(=O)N[C@@H](CC(=O)O)C(=O)N[C@@H](CC(=O)O)C(=O)N[C@@H](C)C(=O)N[C@@H](C)C(=O)N[C@@H](Cc1ccccc1)C(=O)N[C@@H](CC(N)=O)C(=O)N2)C(N)=O (some centres unmarked) [I-935] = 8.10

Taken from patent US20240116985A1.
